- STUDY TARGET: PTPN2/TC-PTP (Homo sapiens, UniProt P17706)
- Construct: purchased Recation Biology Inc
- Sequence (P17706 whole entry): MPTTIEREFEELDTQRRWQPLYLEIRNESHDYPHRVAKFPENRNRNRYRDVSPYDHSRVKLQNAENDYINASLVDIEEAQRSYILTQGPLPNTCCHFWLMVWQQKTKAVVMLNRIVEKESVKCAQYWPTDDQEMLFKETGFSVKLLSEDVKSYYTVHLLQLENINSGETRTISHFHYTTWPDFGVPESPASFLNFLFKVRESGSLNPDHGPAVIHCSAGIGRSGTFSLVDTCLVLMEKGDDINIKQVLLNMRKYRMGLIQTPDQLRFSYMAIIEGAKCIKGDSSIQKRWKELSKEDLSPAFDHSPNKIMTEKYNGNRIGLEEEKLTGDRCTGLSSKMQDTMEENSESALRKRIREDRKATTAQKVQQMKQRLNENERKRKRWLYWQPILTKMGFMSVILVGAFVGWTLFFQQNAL
- MEASUREMENT PROTOCOL: Phosphatase panel, DiFMUP fluorescence assay
- Type: biochemical
- EXPERIMENTAL PARAMETERS: Table 19B; read-out: inhibitory activity PTPN2/TC-PTP
ENDPOINT: IC50

For CCc1oc2cc(S(=O)(=O)Nc3ccc(S(=O)(=O)Nc4nccs4)cc3)ccc2c1C(=O)c1cc(Br)c(O)c(Br)c1 [PTP1B Inhibitor, reference compound] , what is its reported IC50?
5.86 µM

Same read-out for CC(CCC[C@@H](C)[C@H]1CCC2C3C(CC[C@@]21C)[C@@]1(C)CC[C@H](NCCCNCCCCN)C[C@@H]1C[C@H]3O)C(=O)O (single isomer, unassigned) ?
> 100 µM

Now give it for CC(CCC[C@@H](C)[C@H]1CCC2C3C(CC[C@@]21C)[C@@]1(C)CC[C@H](NCCCNCCCCNCCCN)C[C@@H]1C[C@H]3O)C(=O)O (single isomer, unassigned) too.
> 100 µM

###

- STUDY TARGET: PTPN11/SHP2 (Homo sapiens)
- MEASUREMENT PROTOCOL: Phosphatase panel, DiFMUP fluorescence assay
- Format: biochemical
- EXPERIMENTAL PARAMETERS: Table 18A; read-out: inhibitory activity PTPN11/SHP
ENDPOINT: pIC50
// pIC50 here means minus log10 of the molar concentration (mol/L)

Entry CC(CCC[C@@H](C)[C@H]1CCC2C3C(CC(O)[C@@]21C)[C@@]1(C)CC[C@H](NCCCNCCCCN)C[C@@H]1C[C@H]3O)C(=O)O (single isomer, unassigned) [ENT-05] , system PTPN11/SHP2 (Homo sapiens): what pIC50 was measured?
4.74

###

- STUDY TARGET: PTPN1/PTP1B-CD (Homo sapiens, UniProt P18031)
- Construct: purchased Recation Biology Inc
- Sequence (P18031 3-277 limits assumed): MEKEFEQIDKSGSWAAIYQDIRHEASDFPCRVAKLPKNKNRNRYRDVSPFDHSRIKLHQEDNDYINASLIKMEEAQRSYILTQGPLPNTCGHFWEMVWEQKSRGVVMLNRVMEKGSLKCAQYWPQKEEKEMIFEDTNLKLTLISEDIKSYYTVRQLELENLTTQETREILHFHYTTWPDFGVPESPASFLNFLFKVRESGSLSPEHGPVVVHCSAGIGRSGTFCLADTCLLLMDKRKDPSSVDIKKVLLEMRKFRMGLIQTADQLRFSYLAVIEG
- MEASUREMENT PROTOCOL: Phosphatase panel, DiFMUP fluorescence assay
- Format: biochemical
- EXPERIMENTAL PARAMETERS: Table 18B; read-out: inhibitory activity PTPN1/PTP1B-CD
ENDPOINT: IC50 (nM)
Give a bare numeral; the unit nM is implied.

Endpoint output: IC50 of CC(CCC[C@@H](C)[C@H]1CCC2C3C(CC(O)[C@@]21C)[C@@]1(C)CC[C@H](NCCCNCCCCN)C[C@@H]1C[C@H]3O)C(=O)O (single isomer, unassigned) . Value?
2580

###

- STUDY TARGET: PTPN1/PTP1B-CD (Homo sapiens, UniProt P18031)
- Construct: purchased Recation Biology Inc
- MEASUREMENT PROTOCOL: Phosphatase panel, DiFMUP fluorescence assay
- Format: biochemical
- EXPERIMENTAL PARAMETERS: Table 5C; read-out: Compound IC50 (M) PTPN1/PTP1B-CD
ENDPOINT: IC50
Don't forget the unit after the value.

Look up IC50 for this compound: CC(CCC[C@@H](C)[C@H]1CCC2C3C(CC[C@@]21C)[C@@]1(C)CC[C@H](NCCCNCCCCNCCCN)C[C@@H]1C[C@H]3O)C(=O)O (single isomer, unassigned)
1.17e-07 M

###

- STUDY TARGET: PTPN2/TC-PTP (Homo sapiens, UniProt P17706)
- Construct: purchased Recation Biology Inc
- MEASUREMENT PROTOCOL: Phosphatase panel, DiFMUP fluorescence assay
- Assay type: biochemical
- EXPERIMENTAL PARAMETERS: Table 18B; read-out: inhibitory activity PTPN2/TC-PTP
ENDPOINT: IC50 (µM)
Please respond with the number in µM and leave the unit unwritten.

Tell me the measured IC50 of CCc1oc2cc(S(=O)(=O)Nc3ccc(S(=O)(=O)Nc4nccs4)cc3)ccc2c1C(=O)c1cc(Br)c(O)c(Br)c1 [PTP1B Inhibitor, reference compound] , please.
7.53

###

- STUDY TARGET: PP2A Alpha/PP2R1A Complex (Homo sapiens, UniProt P67775)
- Construct: purchased Recation Biology Inc
- Sequence (P67775 whole entry): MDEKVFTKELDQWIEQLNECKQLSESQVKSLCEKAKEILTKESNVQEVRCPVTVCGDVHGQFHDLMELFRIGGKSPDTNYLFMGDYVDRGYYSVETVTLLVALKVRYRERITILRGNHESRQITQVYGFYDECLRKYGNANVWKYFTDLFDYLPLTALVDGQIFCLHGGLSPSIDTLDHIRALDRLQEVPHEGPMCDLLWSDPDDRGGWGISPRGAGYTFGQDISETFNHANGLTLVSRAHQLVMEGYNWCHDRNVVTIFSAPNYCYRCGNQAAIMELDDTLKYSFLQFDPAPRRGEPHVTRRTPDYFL
- Sequence (P30153 whole entry partner): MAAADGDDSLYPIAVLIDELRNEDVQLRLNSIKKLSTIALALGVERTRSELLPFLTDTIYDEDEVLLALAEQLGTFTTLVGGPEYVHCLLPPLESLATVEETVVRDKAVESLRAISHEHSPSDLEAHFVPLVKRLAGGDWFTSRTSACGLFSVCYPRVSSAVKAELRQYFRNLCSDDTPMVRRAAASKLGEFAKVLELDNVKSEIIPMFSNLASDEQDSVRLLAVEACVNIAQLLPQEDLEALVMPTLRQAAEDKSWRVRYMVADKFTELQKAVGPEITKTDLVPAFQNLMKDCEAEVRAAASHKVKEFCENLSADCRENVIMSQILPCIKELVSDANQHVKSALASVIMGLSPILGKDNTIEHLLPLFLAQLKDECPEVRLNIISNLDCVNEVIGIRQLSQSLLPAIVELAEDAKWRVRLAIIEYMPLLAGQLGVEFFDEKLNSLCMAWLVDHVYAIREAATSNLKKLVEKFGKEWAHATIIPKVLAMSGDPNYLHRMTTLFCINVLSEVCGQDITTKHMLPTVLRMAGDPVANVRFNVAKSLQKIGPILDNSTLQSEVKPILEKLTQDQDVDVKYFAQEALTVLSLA
- MEASUREMENT PROTOCOL: Phosphatase panel, DiFMUP fluorescence assay
- Assay type: biochemical
- EXPERIMENTAL PARAMETERS: inhibitory activity PP2A Alpha/PP2R1A Complex, Table 19A
ENDPOINT: pIC50
// pIC50 is dimensionless: -log10 of concentration (M)

I have this molecule here, CC1(C(=O)O)C2CCC(O2)C1(C)C(=O)O (stereo not shown) [Canthardic Acid, Cantharidic acid, reference compound] , and I need its recorded pIC50.
7.52

###

- STUDY TARGET: DUSP22/MKPX (Homo sapiens, UniProt Q9NRW4)
- Construct: purchased Recation Biology Inc
- Sequence (Q9NRW4 whole entry): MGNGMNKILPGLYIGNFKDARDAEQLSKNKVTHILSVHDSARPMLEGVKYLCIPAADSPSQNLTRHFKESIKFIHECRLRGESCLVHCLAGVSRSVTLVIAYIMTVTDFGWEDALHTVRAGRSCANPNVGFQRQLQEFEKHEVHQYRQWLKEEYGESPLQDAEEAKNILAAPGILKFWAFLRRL
- MEASUREMENT PROTOCOL: Phosphatase panel, DiFMUP fluorescence assay
- Type: biochemical
- EXPERIMENTAL PARAMETERS: Table 19A; read-out: inhibitory activity DUSP22/MKPXPT
ENDPOINT: pIC50
Just the number, please; pIC50 means minus log10 of the concentration in mol/L.

CC(CCC[C@@H](C)[C@H]1CCC2C3C(CC[C@@]21C)[C@@]1(C)CC[C@H](NCCCNCCCCN)C[C@@H]1C[C@H]3O)C(=O)O (single isomer, unassigned)
5.68

Entry under review: CC(CCC[C@@H](C)[C@H]1CCC2C3C(CC[C@@]21C)[C@@]1(C)CC[C@H](NCCCNCCCCNCCCN)C[C@@H]1C[C@H]3O)C(=O)O (single isomer, unassigned) . Reported pIC50?
5.86

###

- STUDY TARGET: PTPN11/SHP2-FL (Homo sapiens, UniProt Q06124)
- MEASUREMENT PROTOCOL: Phosphatase panel, DiFMUP assay with activating peptide
Collected IC50 values appear next to each entry.
Return type: number; implicit unit nM.

Would you please look over these solved cases?
CC(CCC[C@@H](C)[C@H]1CCC2C3C(CC[C@@]21C)[C@@]1(C)CC[C@H](NCCCNCCCCN)C[C@@H]1C[C@H]3O)C(=O)O (single isomer, unassigned) [ENT-06]
3170
CC(C)[C@@H](CC[C@@H](C)[C@H]1CC[C@H]2[C@@H]3[C@H](O)C[C@H]4C[C@@H](NCCCNCCCCNCCCN)CC[C@]4(C)[C@H]3CC[C@]12C)OS(=O)(=O)O (single isomer, unassigned) [ENT-02 (MSI-1436), trodusquemine]
752

Lab note: need IC50 with PTPN11/SHP2-FL (Homo sapiens, UniProt Q06124) for entry CC(CCC[C@@H](C)[C@H]1CCC2C3C(CC[C@@]21C)[C@@]1(C)CC[C@H](NCCCNCCCCNCCCN)C[C@@H]1C[C@H]3O)C(=O)O (single isomer, unassigned) [ENT-03] , please look it up.
1420

Please do the same for CC(CCC[C@@H](C)[C@H]1CCC2C3C(CC(O)[C@@]21C)[C@@]1(C)CC[C@H](NCCCNCCCCN)C[C@@H]1C[C@H]3O)C(=O)O (single isomer, unassigned) [ENT-05] as well.
976

###

- MEASUREMENT PROTOCOL: Pharmacokinetic profile, intravenous administration
- Format: in vivo, male SD Rats
- EXPERIMENTAL PARAMETERS: male, SD, rat, plasma, iv, 5 mg/kg, I.V. 5 mg/kg, individual rats (Rat 1-3)
ENDPOINT: AUC(0-t) (µg·h/mL)
Numeric only. Scale: µg·h/mL

Recorded AUC(0-t) of CC(CCC[C@@H](C)[C@H]1CCC2C3C(CC[C@@]21C)[C@@]1(C)CC[C@H](NCCCNCCCCNCCCN)C[C@@H]1C[C@H]3O)C(=O)O (single isomer, unassigned) [ENT-03] , please.
558

###

- STUDY TARGET: PTPN11/SHP2 (Homo sapiens)
- Sequence (Q06124 1-593): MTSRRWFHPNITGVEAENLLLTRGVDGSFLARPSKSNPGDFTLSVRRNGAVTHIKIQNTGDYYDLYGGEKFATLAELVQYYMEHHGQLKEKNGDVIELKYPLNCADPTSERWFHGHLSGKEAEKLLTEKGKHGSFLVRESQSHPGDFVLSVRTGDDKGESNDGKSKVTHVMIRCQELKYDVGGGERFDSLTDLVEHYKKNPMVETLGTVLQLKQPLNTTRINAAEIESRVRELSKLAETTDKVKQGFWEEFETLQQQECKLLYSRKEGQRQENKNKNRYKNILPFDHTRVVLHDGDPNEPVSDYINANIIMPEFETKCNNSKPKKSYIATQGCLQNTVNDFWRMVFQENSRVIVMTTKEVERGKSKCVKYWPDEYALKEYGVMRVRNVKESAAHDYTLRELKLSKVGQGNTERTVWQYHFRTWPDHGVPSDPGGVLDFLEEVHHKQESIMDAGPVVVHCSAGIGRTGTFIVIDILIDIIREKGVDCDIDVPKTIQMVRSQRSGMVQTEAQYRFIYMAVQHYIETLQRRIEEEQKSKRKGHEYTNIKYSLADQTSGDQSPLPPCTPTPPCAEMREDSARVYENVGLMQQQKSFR
- MEASUREMENT PROTOCOL: Phosphatase panel, DiFMUP fluorescence assay
- Type: biochemical
- EXPERIMENTAL PARAMETERS: Table 19A; read-out: inhibitory activity PTPN11/SHP
ENDPOINT: IC50 (µM)
Numbers only; they are read as µM.

CC(CCC[C@@H](C)[C@H]1CCC2C3C(CC[C@@]21C)[C@@]1(C)CC[C@H](NCCCNCCCCN)C[C@@H]1C[C@H]3O)C(=O)O (single isomer, unassigned)
3.45

// moving on: another record for IC50
Dear colleague, I am looking for the recorded IC50 of the following molecule: CC(CCC[C@@H](C)[C@H]1CCC2C3C(CC[C@@]21C)[C@@]1(C)CC[C@H](NCCCNCCCCNCCCN)C[C@@H]1C[C@H]3O)C(=O)O (single isomer, unassigned)
5
